Readout name: melting point (°C)
# output: bare number, implied unit °C

Note to self: melting point recorded for COc1ccc(C2=NN(C3CCN(C(=O)c4cc5ccccc5[nH]4)CC3)C(=O)C2(C)C)cc1OC was 265

Note to self: melting point recorded for COc1cc(C2=NN(C3CCN(S(=O)(=O)c4cccc(C)c4)CC3)C(=O)C2(C)C)cc2c1OC(C)(C)C2 was 183

Note to self: melting point recorded for COc1ccc(C2=NN(C3CCN(S(=O)(=O)c4cccc(C(=O)O)c4)CC3)C(=O)C2(C)C)cc1OC was 244

Note to self: melting point recorded for COC(=O)c1cccc(S(=O)(=O)N2CCC(N3N=C(c4ccc(OC)c(OC)c4)C(C)(C)C3=O)CC2)c1 was 214

Note to self: melting point recorded for COc1ccc(C2=NN(C3CCN(C(=O)c4ccccc4OC4CCCC4)CC3)C(=O)C2(C)C)cc1OC was 176

###

Readout name: melting point

Please review the following examples before continuing.
Chemical smiles | Readout name | Result
COc1ccc(C2=NN(C3CCN(C(=O)c4cc(O)ccc4C)CC3)C(=O)C2(C)C)cc1OC | melting point | 214 to 215 °C
CCOc1cccc(C(=O)N2CCC(N3N=C(c4ccc(OC)c(OC)c4)C(C)(C)C3=O)CC2)c1 | melting point | 154 to 156 °C

Note to self: melting point recorded for COc1ccc(C2=NN(C3CCN(C(=O)c4ccccc4O)CC3)C(=O)C2(C)C)cc1OC was 212 to 213 °C
